# ASSAY REMARKS: BSK_3C_TissueFactor: BioMAP Diversity Plus: 3C Assay for Tissue Factor Biomarker Activity (AID 2282997)
# MEASUREMENT CONDITIONS: BioMAP 3C HUVEC, tissue factor biomarker readout; actives raise or lower the signal
# Description: BSK_3C is a cell-based, multiplexed-readout assay that uses umbilical vein endothelium, a human vascular primary cell, with measurements taken at 24 hours after chemical dosing in a 96-well plate.BSK_3C_TissueFactor is an assay component measured in the BSK_3C assay. It measures Tissue Factor antibody related to regulation of gene expression using ELISA technology.Data from the assay component BSK_3C_TissueFactor was analyzed into 1 assay endpoint. […]
The source made the active and inactive calls. The calls were made as follows: active = hit-call score of the fitted dose curve at least 0.9, where 1 is the maximum; inactive = score below 0.9.
Write down one outcome, taken from 1 = active, -1 = inactive

Query: Recorded call for "NCCNCCN" ?
Response: -1

Query: Recorded call for "c1ccc2sc(SN(C3CCCCC3)C3CCCCC3)nc2c1" ?
Response: -1

Query: Recorded call for "CCCCCCCCC=O" ?
Response: -1

Query: Recorded call for CN(CCOc1ccc(CC2SC(=O)NC2=O)cc1)c1ccccn1 (stereo unspecified) ?
Response: -1

Query: Recorded call for "CC(=O)Nc1ccccc1O" ?
Response: -1

Query: Recorded call for "O=C(O)c1cn(-c2ccc(F)cc2)c2cc(N3CCNCC3)c(F)cc2c1=O" ?
Response: -1

Query: Recorded call for "O=C(O)c1cn(C2CC2)c2cc(N3CCNCC3)c(F)cc2c1=O" ?
Response: -1

Query: Recorded call for "C=C(C)C(=O)O[C@H]1C[C@@H]2CC[C@@]1(C)C2(C)C" ?
Response: 1

Query: Recorded call for "O=C1CCCCCCCCCCCCCCO1" ?
Response: 1

Query: Recorded call for "CC(C)(COC(=O)c1ccccc1)COC(=O)c1ccccc1" ?
Response: 1

Query: Recorded call for "O=C1OC2(c3cc(Br)c(O)c(Br)c3Oc3c2cc(Br)c(O)c3Br)c2c(Cl)c(Cl)c(Cl)c(Cl)c21" ?
Response: 1

Query: Recorded call for "C[C@H]1C[C@@H]2[C@H]([C@@H](O)C[C@@]3(C)[C@H]2CC[C@]3(O)C(=O)CO)[C@@]2(C)C=CC(=O)C=C12" ?
Response: -1

Query: Recorded call for "CCCCCCCCCC=O" ?
Response: -1

Query: Recorded call for "Nc1cc([N+](=O)[O-])ccc1Cl" ?
Response: -1

Query: Recorded call for "O=[N+]([O-])c1cc(C(F)(F)F)ccc1Cl" ?
Response: -1

Query: Recorded call for OC1OC[C@@H](O)[C@H](O)[C@H]1O (stereo partly specified) ?
Response: -1

Query: Recorded call for "O=C(O)C[C@H](O)C[C@H](O)/C=C/c1c(C2CC2)nc2ccccc2c1-c1ccc(F)cc1" ?
Response: -1

Query: Recorded call for "CC(=O)O[C@]1(C(C)=O)CC[C@H]2[C@@H]3C[C@H](C)C4=CC(=O)CC[C@]4(C)[C@H]3CC[C@@]21C" ?
Response: -1

Query: Recorded call for CC(=O)OCCC(C)CC(C)(C)C (stereo unspecified) ?
Response: -1

Query: Recorded call for "Nc1cc([N+](=O)[O-])ccc1O" ?
Response: -1

Query: Recorded call for "CC[Si](OC(C)=O)(OC(C)=O)OC(C)=O" ?
Response: -1

Query: Recorded call for "CCCCC/C=C/C=C/C=O" ?
Response: 1

Query: Recorded call for O=C=NC1CCC(CC2CCC(N=C=O)CC2)CC1 (stereo unspecified) ?
Response: 1

Query: Recorded call for "Cc1cc(C2(c3cc(C)c(O)cc3C)OS(=O)(=O)c3ccccc32)c(C)cc1O" ?
Response: -1

Query: Recorded call for "C#C[C@]1(O)CC[C@H]2[C@@H]3CCC4=Cc5oncc5C[C@]4(C)[C@H]3CC[C@@]21C" ?
Response: -1

Query: Recorded call for "N#Cc1ccc(CC(=NNC(=O)Nc2ccc(OC(F)(F)F)cc2)c2cccc(C(F)(F)F)c2)cc1" ?
Response: -1

Query: Recorded call for "CC(C)c1ccc(C(C)C)cc1" ?
Response: 1

Query: Recorded call for "C=CCOC(=O)CCC1CCCCC1" ?
Response: -1

Query: Recorded call for "Cc1ccc(Nc2ccc(O)c3c2C(=O)c2ccccc2C3=O)cc1" ?
Response: 1

Query: Recorded call for "CCn1c2ccccc2c2cc(N)ccc21" ?
Response: -1

Query: Recorded call for "CCC(=O)OCc1ccccc1" ?
Response: -1
